Data provenance is patent US7192928B1.

Tested on: adjuvant induced arthritis in rats
assay explanation: Adjuvant-induced arthritis in rats
Type: in vivo, rat
cond: section (i), summary of Table 3 experiments
endpoint name: EFFECT on adjuvant induced arthritis

In [3]: df
Out[3]:
                                substance                      assayed_target  recorded_measurement
0      H-LGILLLGV-OH [C, L G I L L L G V]  adjuvant induced arthritis in rats             no effect
1  H-GLRILLLKV-OH [CP, G L R I L L L K V]  adjuvant induced arthritis in rats          Best results
2      H-LDILLLEV-OH [E, L D I L L L E V]  adjuvant induced arthritis in rats             no effect
3      H-ILLLKVAG-OH [B, I L L L K V A G]  adjuvant induced arthritis in rats          Best results
